Target: hFASN enzyme (full length) (Homo sapiens, UniProt P49327)
Construct: 10 μL hFASN enzyme (full length, 300 ng, purified in house); made in house
Sequence (P49327 whole entry): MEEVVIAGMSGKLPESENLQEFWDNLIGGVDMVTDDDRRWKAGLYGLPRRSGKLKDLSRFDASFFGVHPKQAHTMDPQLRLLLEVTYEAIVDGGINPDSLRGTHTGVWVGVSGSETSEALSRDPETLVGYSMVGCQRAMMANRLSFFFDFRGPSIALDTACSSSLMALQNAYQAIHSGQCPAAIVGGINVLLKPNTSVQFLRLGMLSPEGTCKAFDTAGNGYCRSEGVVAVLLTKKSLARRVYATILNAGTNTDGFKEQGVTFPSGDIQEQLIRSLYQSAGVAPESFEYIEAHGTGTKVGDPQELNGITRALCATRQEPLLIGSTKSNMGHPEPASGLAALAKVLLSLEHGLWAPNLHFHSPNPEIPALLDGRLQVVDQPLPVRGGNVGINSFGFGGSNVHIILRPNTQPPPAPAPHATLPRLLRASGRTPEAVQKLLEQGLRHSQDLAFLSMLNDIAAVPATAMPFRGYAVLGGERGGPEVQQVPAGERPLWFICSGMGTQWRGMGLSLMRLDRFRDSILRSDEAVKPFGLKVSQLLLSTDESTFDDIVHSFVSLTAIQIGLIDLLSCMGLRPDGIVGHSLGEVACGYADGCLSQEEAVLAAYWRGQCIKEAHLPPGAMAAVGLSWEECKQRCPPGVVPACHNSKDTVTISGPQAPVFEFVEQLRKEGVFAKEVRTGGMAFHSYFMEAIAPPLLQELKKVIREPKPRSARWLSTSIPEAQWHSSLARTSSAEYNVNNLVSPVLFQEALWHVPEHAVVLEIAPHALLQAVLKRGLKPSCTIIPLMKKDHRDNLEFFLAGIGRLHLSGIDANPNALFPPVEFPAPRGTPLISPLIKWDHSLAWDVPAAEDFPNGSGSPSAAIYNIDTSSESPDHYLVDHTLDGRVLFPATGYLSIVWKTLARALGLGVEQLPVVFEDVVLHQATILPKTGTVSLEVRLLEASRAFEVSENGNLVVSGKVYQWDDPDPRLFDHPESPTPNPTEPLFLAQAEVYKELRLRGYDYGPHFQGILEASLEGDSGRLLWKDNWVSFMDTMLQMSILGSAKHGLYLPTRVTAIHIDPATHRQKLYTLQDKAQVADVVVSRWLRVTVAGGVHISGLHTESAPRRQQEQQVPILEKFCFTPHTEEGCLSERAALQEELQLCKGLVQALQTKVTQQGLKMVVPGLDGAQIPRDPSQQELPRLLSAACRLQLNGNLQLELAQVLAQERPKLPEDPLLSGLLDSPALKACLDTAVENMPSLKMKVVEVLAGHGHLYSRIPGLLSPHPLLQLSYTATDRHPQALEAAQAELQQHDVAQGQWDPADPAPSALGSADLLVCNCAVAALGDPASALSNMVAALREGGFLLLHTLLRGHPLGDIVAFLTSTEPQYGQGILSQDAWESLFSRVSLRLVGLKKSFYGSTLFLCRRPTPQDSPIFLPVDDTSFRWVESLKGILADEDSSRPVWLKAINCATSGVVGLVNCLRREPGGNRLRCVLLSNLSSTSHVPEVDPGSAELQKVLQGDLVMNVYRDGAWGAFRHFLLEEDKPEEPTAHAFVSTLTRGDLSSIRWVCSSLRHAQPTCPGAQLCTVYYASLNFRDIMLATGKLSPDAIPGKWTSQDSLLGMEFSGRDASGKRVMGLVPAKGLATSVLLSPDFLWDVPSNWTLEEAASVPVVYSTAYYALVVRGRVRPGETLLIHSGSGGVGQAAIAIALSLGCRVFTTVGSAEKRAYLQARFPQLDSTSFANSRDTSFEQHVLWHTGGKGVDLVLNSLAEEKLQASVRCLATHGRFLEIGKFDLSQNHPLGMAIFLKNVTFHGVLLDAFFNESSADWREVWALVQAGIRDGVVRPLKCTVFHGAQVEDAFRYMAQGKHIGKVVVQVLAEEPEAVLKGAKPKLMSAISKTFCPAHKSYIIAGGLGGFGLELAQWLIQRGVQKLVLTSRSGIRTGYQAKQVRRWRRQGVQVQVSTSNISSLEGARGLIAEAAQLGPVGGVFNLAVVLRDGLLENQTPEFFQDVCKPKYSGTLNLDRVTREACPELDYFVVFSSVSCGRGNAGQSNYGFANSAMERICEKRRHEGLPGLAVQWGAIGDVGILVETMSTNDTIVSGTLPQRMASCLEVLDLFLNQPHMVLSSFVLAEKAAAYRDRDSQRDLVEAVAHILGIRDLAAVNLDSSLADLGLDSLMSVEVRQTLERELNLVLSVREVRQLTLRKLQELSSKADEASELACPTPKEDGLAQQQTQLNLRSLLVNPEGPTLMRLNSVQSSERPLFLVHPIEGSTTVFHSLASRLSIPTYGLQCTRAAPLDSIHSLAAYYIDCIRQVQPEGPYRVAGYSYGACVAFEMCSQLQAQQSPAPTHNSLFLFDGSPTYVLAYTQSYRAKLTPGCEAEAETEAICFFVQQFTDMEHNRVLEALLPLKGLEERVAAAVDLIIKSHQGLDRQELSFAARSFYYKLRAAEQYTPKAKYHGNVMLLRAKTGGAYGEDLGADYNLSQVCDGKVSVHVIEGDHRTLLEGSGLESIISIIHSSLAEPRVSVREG
Test: Fatty Acid Synthase (FASN) inhibition scintillation proximity assay
Assay type: biochemical
Settings: read-out: Human FASN % inhibition @ 10 μM, 10 μM test compound
In this section we review reported inhibition at 10 µM values for a set of molecules.
Report the figure in % without appending any unit label.

molecule | inhibition at 10 µM [%]
O=C(C1CC1)N1CCC(CN2C(=O)C3(CC3)N=C2c2ccc(-c3ccc4[nH]ncc4c3)cc2)CC1 | 81.7

In: Entry under review: CS(=O)(=O)N1CCC(CN2C(=O)C3(CCOC3)N=C2c2ccc(-c3ccc4cccnc4c3)cc2)C1 (stereo not drawn) . Reported inhibition at 10 µM?
Out: 10

In: What would you report for O=C(C1CC1)N1CC(CN2C(=O)C3(CC3)N=C2c2ccc(-c3ccc4cc(F)ccc4n3)cc2F)C1 ?
Out: 103

In: What would you report for CC(O)C(=O)N1CC(CN2C(=O)C3(CCOCC3)N=C2c2ccc(-c3ccc4cccnc4c3)cc2)C1 (stereo not drawn) ?
Out: 89
